B1: FUNDC2 (parent)
chain: YIKVDWQRVEKDMKKAKEQLKIRK

Variants of: B1
procedure-details: protein stability index of a GFP-peptide fusion (GPS, HEK-293T) (PSI 1-6); higher = more stable;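 note: lentivirally expressed fusions sorted by FACS into six bins by GFP to DsRed ratio, PSI derived from sequencing read proportions per bin multiplied by bin number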
experimental-context: c terminus: a fixed tail appended
Label N if protein stability index falls below 2; label Y in every other case.

State whether the measured protein stability index reaches 2, counting equality as reaching it, for K14H
N

State whether the measured protein stability index reaches 2, counting equality as reaching it, for I22C
N

State whether the measured protein stability index reaches 2, counting equality as reaching it, for K17H
N

State whether the measured protein stability index reaches 2, counting equality as reaching it, for Y1H
Y

State whether the measured protein stability index reaches 2, counting equality as reaching it, for V9M
N

State whether the measured protein stability index reaches 2, counting equality as reaching it, for K15M
N

State whether the measured protein stability index reaches 2, counting equality as reaching it, for K17W
N

State whether the measured protein stability index reaches 2, counting equality as reaching it, for K21Q
N

State whether the measured protein stability index reaches 2, counting equality as reaching it, for E18L
Y

State whether the measured protein stability index reaches 2, counting equality as reaching it, for K15W
N

State whether the measured protein stability index reaches 2, counting equality as reaching it, for K15A
N

State whether the measured protein stability index reaches 2, counting equality as reaching it, for Y1D
Y

State whether the measured protein stability index reaches 2, counting equality as reaching it, for I2Q
N

State whether the measured protein stability index reaches 2, counting equality as reaching it, for M13K
N

State whether the measured protein stability index reaches 2, counting equality as reaching it, for W6I
Y

State whether the measured protein stability index reaches 2, counting equality as reaching it, for K11I
N

State whether the measured protein stability index reaches 2, counting equality as reaching it, for K17A
N

State whether the measured protein stability index reaches 2, counting equality as reaching it, for K17T
N

State whether the measured protein stability index reaches 2, counting equality as reaching it, for E18N
N

State whether the measured protein stability index reaches 2, counting equality as reaching it, for L20G
N

State whether the measured protein stability index reaches 2, counting equality as reaching it, for K3A
Y

State whether the measured protein stability index reaches 2, counting equality as reaching it, for Q19P
N

State whether the measured protein stability index reaches 2, counting equality as reaching it, for A16Q
Y

State whether the measured protein stability index reaches 2, counting equality as reaching it, for K11Q
Y

State whether the measured protein stability index reaches 2, counting equality as reaching it, for K15T
Y

State whether the measured protein stability index reaches 2, counting equality as reaching it, for Q7T
N

State whether the measured protein stability index reaches 2, counting equality as reaching it, for K17E
Y

State whether the measured protein stability index reaches 2, counting equality as reaching it, for K24T
N

State whether the measured protein stability index reaches 2, counting equality as reaching it, for K11V
Y

State whether the measured protein stability index reaches 2, counting equality as reaching it, for D12V
Y

State whether the measured protein stability index reaches 2, counting equality as reaching it, for K14D
N

State whether the measured protein stability index reaches 2, counting equality as reaching it, for Y1F
N

State whether the measured protein stability index reaches 2, counting equality as reaching it, for K17F
Y

State whether the measured protein stability index reaches 2, counting equality as reaching it, for R23Q
Y

State whether the measured protein stability index reaches 2, counting equality as reaching it, for E18I
Y

State whether the measured protein stability index reaches 2, counting equality as reaching it, for L20K
N

State whether the measured protein stability index reaches 2, counting equality as reaching it, for K21W
Y

State whether the measured protein stability index reaches 2, counting equality as reaching it, for Q19M
Y

State whether the measured protein stability index reaches 2, counting equality as reaching it, for Y1A
Y

State whether the measured protein stability index reaches 2, counting equality as reaching it, for W6P
Y

State whether the measured protein stability index reaches 2, counting equality as reaching it, for R23P
N

State whether the measured protein stability index reaches 2, counting equality as reaching it, for M13H
N

State whether the measured protein stability index reaches 2, counting equality as reaching it, for W6V
Y

State whether the measured protein stability index reaches 2, counting equality as reaching it, for E18R
N

State whether the measured protein stability index reaches 2, counting equality as reaching it, for E10W
N

State whether the measured protein stability index reaches 2, counting equality as reaching it, for V9T
N

State whether the measured protein stability index reaches 2, counting equality as reaching it, for E10R
N

State whether the measured protein stability index reaches 2, counting equality as reaching it, for Q7A
N

State whether the measured protein stability index reaches 2, counting equality as reaching it, for D12H
N

State whether the measured protein stability index reaches 2, counting equality as reaching it, for D5G
Y

State whether the measured protein stability index reaches 2, counting equality as reaching it, for Q7Y
N

State whether the measured protein stability index reaches 2, counting equality as reaching it, for E18Y
N

State whether the measured protein stability index reaches 2, counting equality as reaching it, for R8V
N

State whether the measured protein stability index reaches 2, counting equality as reaching it, for E10N
N

State whether the measured protein stability index reaches 2, counting equality as reaching it, for L20R
N

State whether the measured protein stability index reaches 2, counting equality as reaching it, for Q7N
Y

State whether the measured protein stability index reaches 2, counting equality as reaching it, for D12E
N

State whether the measured protein stability index reaches 2, counting equality as reaching it, for I22P
N

State whether the measured protein stability index reaches 2, counting equality as reaching it, for R23G
N

State whether the measured protein stability index reaches 2, counting equality as reaching it, for K24A
Y

State whether the measured protein stability index reaches 2, counting equality as reaching it, for L20Q
N

State whether the measured protein stability index reaches 2, counting equality as reaching it, for K15S
N

State whether the measured protein stability index reaches 2, counting equality as reaching it, for V4N
Y

State whether the measured protein stability index reaches 2, counting equality as reaching it, for K14C
N

State whether the measured protein stability index reaches 2, counting equality as reaching it, for V9D
Y

State whether the measured protein stability index reaches 2, counting equality as reaching it, for M13S
Y

State whether the measured protein stability index reaches 2, counting equality as reaching it, for R23N
Y

State whether the measured protein stability index reaches 2, counting equality as reaching it, for A16G
N

State whether the measured protein stability index reaches 2, counting equality as reaching it, for M13E
N

State whether the measured protein stability index reaches 2, counting equality as reaching it, for R23K
Y

State whether the measured protein stability index reaches 2, counting equality as reaching it, for I22D
N

State whether the measured protein stability index reaches 2, counting equality as reaching it, for K3C
Y

State whether the measured protein stability index reaches 2, counting equality as reaching it, for M13L
N

State whether the measured protein stability index reaches 2, counting equality as reaching it, for Q7P
N

State whether the measured protein stability index reaches 2, counting equality as reaching it, for I2E
Y

State whether the measured protein stability index reaches 2, counting equality as reaching it, for K24S
N

State whether the measured protein stability index reaches 2, counting equality as reaching it, for Q7G
Y
